- test details: Circular dichroism, secondary structure (Bestsel)
- Type: physicochemical
- setup conditions: CD in 20 mM SDS
Where a SMILES comes first, the peptide text is derived from it. [ ]: non-standard residue; d: D form. d2Nal = N[C@H](Cc1ccc2ccccc2c1)C(=O)O
assay endpoint: Others (%)
Answer format: numeric, % implied, no suffix.

Some solved cases for reference:
molecule	Others, %
CC[C@H](C)[C@H](NC(=O)CNC(=O)[C@H](CO)NC(=O)[C@H](CC(C)C)NC(=O)[C@@H](N)Cc1ccccc1)C(=O)N[C@H](C(=O)NCC(=O)N[C@@H](CCSC)C(=O)N[C@@H](CC(C)C)C(=O)N[C@H](C)C(=O)N[C@@H](CCCCN)C(=O)N[C@@H](CC(C)C)C(=O)N[C@@H](Cc1ccccc1)C(N)=O)C(C)C [[G10a]-SHa (2)] (H-FLSGIVGML[dA]KLF-NH2)	0.00
CC[C@H](C)[C@H](NC(=O)CNC(=O)[C@H](CO)NC(=O)[C@H](CC(C)C)NC(=O)[C@@H](N)Cc1ccccc1)C(=O)N[C@H](C(=O)NCC(=O)N[C@@H](CCSC)C(=O)N[C@@H](CC(C)C)C(=O)N[C@H](Cc1ccc2ccccc2c1)C(=O)N[C@@H](CCCCN)C(=O)N[C@@H](CC(C)C)C(=O)N[C@@H](Cc1ccccc1)C(N)=O)C(C)C [[G10n]-SHa (5)] (H-FLSGIVGML[d2Nal]KLF-NH2)	47.20
CC[C@H](C)[C@H](NC(=O)CNC(=O)[C@H](CO)NC(=O)[C@H](CC(C)C)NC(=O)[C@@H](N)Cc1ccccc1)C(=O)N[C@H](C(=O)NCC(=O)N[C@@H](CCSC)C(=O)N[C@@H](CC(C)C)C(=O)NCC(=O)N[C@@H](CCCCN)C(=O)N[C@@H](CC(C)C)C(=O)N[C@@H](Cc1ccccc1)C(N)=O)C(C)C [Temporin-SHa (1), reference compound] (H-FLSGIVGMLGKLF-NH2)	49.80
CC[C@H](C)[C@H](NC(=O)CNC(=O)[C@H](CO)NC(=O)[C@H](CC(C)C)NC(=O)[C@@H](N)Cc1ccccc1)C(=O)N[C@H](C(=O)NCC(=O)N[C@@H](CCSC)C(=O)N[C@@H](CC(C)C)C(=O)N[C@H](Cc1ccc(O)cc1)C(=O)N[C@@H](CCCCN)C(=O)N[C@@H](CC(C)C)C(=O)N[C@@H](Cc1ccccc1)C(N)=O)C(C)C [[G10y]-SHa (6)] (H-FLSGIVGML[dY]KLF-NH2)	0.00
CC[C@H](C)[C@H](NC(=O)CNC(=O)[C@H](CO)NC(=O)[C@H](CC(C)C)NC(=O)[C@@H](N)Cc1ccccc1)C(=O)N[C@H](C(=O)NCC(=O)N[C@@H](CCSC)C(=O)N[C@@H](CC(C)C)C(=O)N[C@@H](CCCCN)C(=O)N[C@@H](CCCCN)C(=O)N[C@@H](CC(C)C)C(=O)N[C@@H](Cc1ccccc1)C(N)=O)C(C)C [[G10K]-SHa (4)] (H-FLSGIVGMLKKLF-NH2)	0.00

Next:
Given item CC[C@H](C)[C@H](NC(=O)CNC(=O)[C@H](CO)NC(=O)[C@H](CC(C)C)NC(=O)[C@@H](N)Cc1ccccc1)C(=O)N[C@H](C(=O)NCC(=O)N[C@@H](CCSC)C(=O)N[C@@H](CC(C)C)C(=O)N[C@H](Cc1ccccc1)C(=O)N[C@@H](CCCCN)C(=O)N[C@@H](CC(C)C)C(=O)N[C@@H](Cc1ccccc1)C(N)=O)C(C)C [[G10f]-SHa (3)] (H-FLSGIVGML[dF]KLF-NH2) , the value recorded as its Others is 0.00
